# System: VLA4 (Homo sapiens, UniProt P05556+P13612)
# Construct: endogenous in cells; host or cells: Ramos cells
# Sequence (P13612 34-1032): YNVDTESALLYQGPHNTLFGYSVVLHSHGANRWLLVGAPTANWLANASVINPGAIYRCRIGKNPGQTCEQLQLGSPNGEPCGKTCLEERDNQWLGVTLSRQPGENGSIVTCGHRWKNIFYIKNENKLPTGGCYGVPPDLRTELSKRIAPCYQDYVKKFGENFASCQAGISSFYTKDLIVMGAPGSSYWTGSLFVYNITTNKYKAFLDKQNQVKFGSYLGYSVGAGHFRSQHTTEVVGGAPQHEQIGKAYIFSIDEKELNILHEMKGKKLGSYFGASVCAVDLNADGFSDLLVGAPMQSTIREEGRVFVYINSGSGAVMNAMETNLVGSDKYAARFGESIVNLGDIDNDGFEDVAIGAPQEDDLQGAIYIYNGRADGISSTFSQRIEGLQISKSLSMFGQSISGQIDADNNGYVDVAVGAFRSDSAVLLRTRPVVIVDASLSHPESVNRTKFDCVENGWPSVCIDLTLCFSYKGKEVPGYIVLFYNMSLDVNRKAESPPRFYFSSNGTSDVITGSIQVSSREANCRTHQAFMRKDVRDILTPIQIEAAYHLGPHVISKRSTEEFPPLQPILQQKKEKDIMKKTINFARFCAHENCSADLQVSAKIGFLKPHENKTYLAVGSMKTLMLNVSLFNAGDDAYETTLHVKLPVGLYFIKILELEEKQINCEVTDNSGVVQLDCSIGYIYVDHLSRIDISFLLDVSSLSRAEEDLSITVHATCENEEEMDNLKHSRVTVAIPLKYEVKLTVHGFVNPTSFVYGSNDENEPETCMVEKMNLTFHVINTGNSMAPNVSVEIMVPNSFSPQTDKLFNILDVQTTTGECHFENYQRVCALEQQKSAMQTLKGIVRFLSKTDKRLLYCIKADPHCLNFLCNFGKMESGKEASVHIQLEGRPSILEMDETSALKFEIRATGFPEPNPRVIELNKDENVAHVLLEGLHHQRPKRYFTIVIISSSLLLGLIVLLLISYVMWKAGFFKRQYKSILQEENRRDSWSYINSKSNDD
# Sequence (P05556 21-798): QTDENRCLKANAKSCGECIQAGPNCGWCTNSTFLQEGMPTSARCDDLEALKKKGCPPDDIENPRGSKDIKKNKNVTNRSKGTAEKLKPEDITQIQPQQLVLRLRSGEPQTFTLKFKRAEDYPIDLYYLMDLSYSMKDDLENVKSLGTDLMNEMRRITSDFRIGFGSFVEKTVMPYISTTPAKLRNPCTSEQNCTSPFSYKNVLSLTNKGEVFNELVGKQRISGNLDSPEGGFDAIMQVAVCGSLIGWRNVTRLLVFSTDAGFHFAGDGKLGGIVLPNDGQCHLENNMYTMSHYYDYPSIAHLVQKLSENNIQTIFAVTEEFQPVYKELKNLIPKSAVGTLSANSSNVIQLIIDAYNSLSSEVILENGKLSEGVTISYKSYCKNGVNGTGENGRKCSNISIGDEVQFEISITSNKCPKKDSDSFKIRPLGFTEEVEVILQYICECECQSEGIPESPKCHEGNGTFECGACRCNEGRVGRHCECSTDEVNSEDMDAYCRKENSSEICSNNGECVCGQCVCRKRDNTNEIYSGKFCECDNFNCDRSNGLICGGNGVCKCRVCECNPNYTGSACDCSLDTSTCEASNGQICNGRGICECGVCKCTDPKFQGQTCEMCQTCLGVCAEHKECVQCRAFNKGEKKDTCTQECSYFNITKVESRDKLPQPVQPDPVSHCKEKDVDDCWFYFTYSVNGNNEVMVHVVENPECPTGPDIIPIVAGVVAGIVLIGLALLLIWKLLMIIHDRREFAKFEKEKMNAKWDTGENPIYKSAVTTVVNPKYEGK
# Protocol details: Inhibition of VLA4-dependent adhesion to BSA-CS1
# Assay type: cell-based
# Measurement parameters: binding of BCECF-labelled Ramos cells to BSA-CS1 coated wells, 2 mM MnCl2; read-out: IC50
pIC50: −log10 of the molar value.
Assay metric: pIC50

In [3]: df
Out[3]:
                                   compound                                    system  assay_metric      observed
0  Cc1ccccc1NC(=O)Nc1ccc(CC(=O)NC(CC(C)C)C(=O)NC(CC(=O)O)C(=O)NC(C(=O)O)c2ccccc2)cc1 (stereo not drawn)  VLA4 (Homo sapiens, UniProt P05556+P13612)         pIC50  5.00 to 7.30
1  CC(C)CC(NC(=O)CCCc1ccccc1)C(=O)NC(CC(=O)O)C(=O)NCC1CCCCC1 (stereo not drawn)  VLA4 (Homo sapiens, UniProt P05556+P13612)         pIC50        < 5.00

From here, focus on the item given below.
Prompt line: Short answer please: pIC50, VLA4 (Homo sapiens, UniProt P05556+P13612), entry Cc1ccccc1NC(=O)Nc1ccc(CC(=O)N[C@H](CC(C)C)C(=O)N[C@@H](CC(=O)O)C(=O)N[C@H](CC(N)=O)C(N)=O)cc1
Response line: > 7.30

----------
In this section we review reported pIC50 values for a set of compounds.
# System: VLA4 (Homo sapiens, UniProt P05556+P13612)
# Construct: endogenous in cells; host or cells: Ramos cells
# Protocol details: Inhibition of VLA4-dependent adhesion to BSA-CS1
# Type: cell-based
# Measurement parameters: binding of BCECF-labelled Ramos cells to BSA-CS1 coated wells, 2 mM MnCl2; read-out: IC50
pIC50: −log10 of the molar value. Square brackets hold non-standard residues; d marks the D form. Peptide text beside a SMILES is read from it. * marks the point of attachment. ξ: configuration not given here. PhAc = O=C(Cc1ccccc1)*; ξNva = CCCC(N)C(=O)O

Compound	Observed
Cc1ccccc1NC(=O)Nc1ccc(CC(=O)N[C@@H](CC(C)C)C(=O)N[C@@H](CC(=O)O)C(=O)N[C@H](CC(C)C)C(N)=O)cc1 [Compound 233]	> 7.30

Prompt line: pIC50 for CCCC(NC(=O)Cc1ccccc1)C(=O)N[C@@H](CC(=O)O)C(=O)N[C@H](C(=O)NC)C(C)C (stereo partly drawn) [Compound 49] (PhAc-[ξNva]-Asp-Val-NHMe) ?
Response line: < 5.00

Prompt line: Field entry: Cc1ccccc1NC(=O)Nc1ccc(CC(=O)N2CCC[C@H]2C(=O)N[C@@H](CCC(=O)O)C(=O)N[C@H](C(N)=O)C(C)C)cc1 [Compound 313]
Response line: > 7.30

----------
In this section we review reported IC50 values for a set of molecules.
# System: VLA4 (Homo sapiens, UniProt P05556+P13612)
# Construct: endogenous in cells; host or cells: Ramos cells
# Protocol details: Inhibition of VLA4-dependent adhesion to BSA-CS1
# Format: cell-based
# Measurement parameters: binding of BCECF-labelled Ramos cells to BSA-CS1 coated wells, 2 mM MnCl2; read-out: IC50

Prompt line: IC50 for CC(C)C[C@H](NC(=O)c1cc2ccccc2cn1)C(=O)NC(CC(=O)NO)C(=O)N[C@H](C(=O)O)C(C)C (stereo partly drawn) [Compound 6] ?
Response line: > 10 µM

Prompt line: Field entry: CC(C)C[C@H](NC(=O)c1ccc(-c2ccccn2)s1)C(=O)N[C@@H](CC(=O)O)C(=O)N[C@H](C(=O)O)C(C)C [Compound 407]
Response line: > 10 µM

Prompt line: Field entry: Cc1ccccc1NC(=O)Nc1ccc(CC(=O)N[C@H](C(=O)N[C@@H](CCC(=O)O)C(=O)N[C@@H](CC(=O)O)C(N)=O)[C@@H](C)O)cc1 [Compound 314]
Response line: < 0.05 µM

----------
# System: VLA4 (Homo sapiens, UniProt P05556+P13612)
# Construct: endogenous in cells; host or cells: Ramos cells
# Protocol details: Inhibition of VLA4-dependent adhesion to BSA-CS1
# Format: cell-based
# Measurement parameters: binding of BCECF-labelled Ramos cells to BSA-CS1 coated wells, 2 mM MnCl2; read-out: IC50
Square brackets hold non-standard residues; d marks the D form. Peptide text beside a SMILES is read from it. * marks the point of attachment. Hydrocinnamoyl = O=C(CCc1ccccc1)*; NMeL = CN[CH](CC(C)C)C(=O)O
In this section we review reported IC50 values for a set of compounds.

Compound	System	IC50
Cc1ccccc1NC(=O)Nc1ccc(CC(=O)N2CCC[C@H]2C(=O)N[C@@H](CC(=O)O)C(=O)N[C@@H](CC(=O)O)C(N)=O)cc1	VLA4 (Homo sapiens, UniProt P05556+P13612)	< 50 nM
COC(=O)C1CCCN1C(=O)C(NC(=O)C(CC(=O)O)NC(=O)C(CC(C)C)NC(=O)CCc1ccc(O)cc1)C(C)C (centres unmarked)	VLA4 (Homo sapiens, UniProt P05556+P13612)	> 10000 nM

Prompt line: Short answer please: IC50, VLA4 (Homo sapiens, UniProt P05556+P13612), entry Cc1ccccc1NC(=O)Nc1ccc(CC(=O)N[C@@H](CCC(N)=O)C(=O)N[C@@H](CC(=O)O)C(=O)N[C@@H](CC(C)C)C(N)=O)cc1
Response line: < 50 nM

Prompt line: Field entry: CNC(=O)C(NC(=O)C(CC(=O)O)NC(=O)C(CC(C)C)N(C)C(=O)CCc1ccccc1)C(C)C (stereo not drawn) [Compound 184] (Hydrocinnamoyl-[NMeL]-Asp-Val-NHMe; configuration not given here)
Response line: > 10000 nM

----------
# System: VLA4 (Homo sapiens, UniProt P05556+P13612)
# Construct: endogenous in cells; host or cells: Ramos cells
# Protocol details: Inhibition of VLA4-dependent adhesion to BSA-CS1
# Assay type: cell-based
# Measurement parameters: binding of BCECF-labelled Ramos cells to BSA-CS1 coated wells, 2 mM MnCl2; read-out: IC50
Numbered stars: 1 amine (or outer) side, 2 acyl side, 3 side chain; on linkers, the order of the positions; unused ones are H or OH. Square brackets hold non-standard residues; d marks the D form. Peptide text beside a SMILES is read from it. * marks the point of attachment. X1 = O=C(Cc1ccc(N[*:1])cc1)[*:2]; PhAc = O=C(Cc1ccccc1)*; CO = O=C([*:1])[*:2]; NHPh = c1ccc(N*)cc1
In this section we review reported IC50 values for a set of molecules.

Below, each entry is followed by its recorded IC50 result.
Molecule	IC50
CC(C)CC(NC(=O)Cc1ccc(NC(=O)Nc2ccccc2)cc1)C(=O)NC(CC(=O)O)C(=O)NC(C(=O)N1CCCC1C(N)=O)C(C)C (centres unmarked) [Compound 201] ({NHPh-CO}-[X1]LDVP-NH2; configuration not given here)	0.05 to 10 µM
CSCC[C@H](NC(=O)[C@H](CC(=O)O)NC(=O)[C@H](CC(C)C)NC(=O)Cc1ccc(NC(=O)Nc2ccccc2C)cc1)C(N)=O	< 0.05 µM
CCC(C)C(NC(=O)C(CC(=O)O)NC(=O)C(CC(C)C)NC(=O)Cc1ccccc1)C(N)=O (stereo not drawn) [Compound 53] (PhAc-Leu-Asp-Ile-NH2; configuration not given here)	> 10 µM
CCC(C)C(NC(=O)C(CC(=O)O)NC(=O)C(CC(C)C)NC(=O)Cc1ccccc1)C(=O)OC (stereo not drawn) [Compound 54] (PhAc-Leu-Asp-Ile-OMe; configuration not given here)	> 10 µM

Prompt line: IC50 for CC(C)C[C@H](NC(=O)c1ccc2c(c1)OCO2)C(=O)N[C@@H](CC(=O)O)C(=O)N[C@H](C(=O)O)C(C)C ?
Response line: > 10 µM

----------
# System: VLA4 (Homo sapiens, UniProt P05556+P13612)
# Construct: endogenous in cells; host or cells: Ramos cells
# Protocol details: Inhibition of VLA4-dependent adhesion to BSA-CS1
# Format: cell-based
# Measurement parameters: binding of BCECF-labelled Ramos cells to BSA-CS1 coated wells, 2 mM MnCl2; read-out: IC50
Square brackets hold non-standard residues; d marks the D form. Peptide text beside a SMILES is read from it. * marks the point of attachment. Quinaldoyl = O=C(c1ccc2ccccc2n1)*; Nle = CCCC[CH](N)C(=O)O; Boc = CC(C)(C)OC(=O)*
In this section we review reported IC50 values for a set of compounds.

Compound	Assay metric	Observed
CC(C)C[C@H](NC(=O)CC1CC2CCC1C2)C(=O)N[C@@H](CC(=O)O)C(=O)N[C@H](C(=O)O)C(C)C (stereo partly drawn)	IC50	> 10000 nM
Cc1ccccc1NC(=O)Nc1ccc(CC(=O)N[C@H](C(=O)N[C@@H](CC(=O)O)C(=O)N[C@@H](CC(C)C)C(N)=O)[C@@H](C)O)cc1	IC50	< 50 nM
CCn1cc(C(=O)N[C@@H](CC(C)C)C(=O)N[C@@H](CC(=O)O)C(=O)N[C@H](C(=O)O)C(C)C)c(=O)c2ccc(C)nc21	IC50	> 10000 nM
Cc1ccccc1NC(=O)Nc1ccc(CC(=O)N[C@@H](CC(C)C)C(=O)N[C@@H](CCC(=O)O)C(=O)N[C@@H](CC(=O)O)C(N)=O)cc1	IC50	< 50 nM
CSCC[C@H](NC(=O)Cc1ccc(NC(=O)Nc2ccccc2C)cc1)C(=O)N[C@@H](CC(=O)O)C(=O)N[C@H](CC(N)=O)C(N)=O	IC50	< 50 nM
COc1ccc2cc(C(C)C(=O)N[C@@H](CC(C)C)C(=O)N[C@@H](CC(=O)O)C(=O)N[C@H](C(=O)O)C(C)C)ccc2c1 (stereo partly drawn)	IC50	> 10000 nM
Cc1ccccc1NC(=O)Nc1ccc(CC(=O)N2CCC[C@H]2C(=O)N[C@@H](CC(=O)O)C(=O)O)cc1	IC50	> 10000 nM
Cc1ccccc1NC(=O)Nc1ccc(CC(=O)N[C@@H](CO)C(=O)N[C@@H](CC(=O)O)C(=O)N[C@@H](CC(=O)O)C(N)=O)cc1	IC50	< 50 nM

Prompt line: IC50 for Cc1ccccc1NC(=O)Nc1ccc(CC(=O)N[C@H](C(=O)N[C@@H](CC(=O)O)C(=O)N[C@H](C(N)=O)[C@@H](C)O)[C@@H](C)O)cc1 ?
Response line: < 50 nM

Prompt line: Field entry: CSCC[C@H](NC(=O)Cc1ccc(NC(=O)Nc2ccccc2C)cc1)C(=O)N[C@@H](CC(=O)O)C(=O)N[C@@H](CCC(=O)O)C(N)=O
Response line: < 50 nM

Prompt line: Field entry: CCCCC(NC(=O)C(NC(=O)C(CC(=O)O)NC(=O)C(CC(C)C)NC(=O)c1ccc2ccccc2n1)C(C)C)C(=O)O (stereo not drawn) [Compound 44] (Quinaldoyl-LDV[Nle]-OH; configuration not given here)
Response line: 50 to 10000 nM

Prompt line: Field entry: COC(=O)C(CCSC)NC(=O)C(NC(=O)C(CC(=O)O)NC(=O)C(CC(C)C)NC(=O)OC(C)(C)C)C(C)C (stereo not drawn) [Compound 167] (Boc-LDVM-OMe; configuration not given here)
Response line: > 10000 nM

Reference source for all entries: patent US6875743B1
